- PROTOCOL_SUMMARY: Protonation constants with enthalpies and entropies, 15.0-45.0 °C
- Format: physicochemical
- TEST_PARAMETERS: 15.0-45.0 °C
ENDPOINT_NAME: ΔS° of log K prot (J · mol^−1 · K^−1)

What value of measured ΔS° of log K prot is listed for NCc1ccncc1 ? 19.6

(1) NCc1ccccn1
(2) NCc1ccccc1 [BZA, benzylamine, reference compound]
(3) NCc1cccnc1
Sort ascending by ΔS° of log K prot. Give your ranking as a list of the labels in the requested order. 1, 3, 2

* * *

- PROTOCOL_SUMMARY: Carbamate stability constants with enthalpies and entropies, 15.0-45.0 °C
- Assay type: physicochemical
- TEST_PARAMETERS: 45 °C
ENDPOINT_NAME: log K carb (carbamate stability constant)

What value of measured log K carb (carbamate stability constant) is listed for NCc1ccncc1 [4-AMPy, 4-(aminomethyl)pyridine] ? 1.84

What value of measured log K carb (carbamate stability constant) is listed for NCc1ccccc1 [BZA, benzylamine, reference compound] ? 1.58

What value of measured log K carb (carbamate stability constant) is listed for NCCO [MEA, monoethanolamine, reference compound] ? 1.55

What value of measured log K carb (carbamate stability constant) is listed for NCc1cccnc1 [3-AMPy, 3-(aminomethyl)pyridine] ? 1.70

* * *

- PROTOCOL_SUMMARY: Carbamate stability constants with enthalpies and entropies, 15.0-45.0 °C
- Type: physicochemical
- TEST_PARAMETERS: 35 °C
ENDPOINT_NAME: log K carb (carbamate stability constant)

What value of measured log K carb (carbamate stability constant) is listed for NCc1ccccc1 [BZA, benzylamine, reference compound] ? 1.81

What value of measured log K carb (carbamate stability constant) is listed for NCc1ccncc1 ? 2.02

What value of measured log K carb (carbamate stability constant) is listed for NCCO [MEA, monoethanolamine, reference compound] ? 1.66

What value of measured log K carb (carbamate stability constant) is listed for NCc1cccnc1 ? 1.93

* * *

- PROTOCOL_SUMMARY: Protonation constants with enthalpies and entropies, 15.0-45.0 °C
- Assay type: physicochemical
- TEST_PARAMETERS: 35 °C
ENDPOINT_NAME: log K prot

What value of measured log K prot is listed for NCc1ccccc1 [BZA, benzylamine, reference compound] ? 8.95

What value of measured log K prot is listed for NCc1ccccn1 [2-AMPy, 2-(aminomethyl)pyridine] ? 8.41

What value of measured log K prot is listed for NCc1cccnc1 [3-AMPy, 3-(aminomethyl)pyridine] ? 8.51

What value of measured log K prot is listed for NCc1ccncc1 [4-AMPy, 4-(aminomethyl)pyridine] ? 8.08

* * *

- PROTOCOL_SUMMARY: Carbamate stability constants with enthalpies and entropies, 15.0-45.0 °C
- Assay type: physicochemical
- TEST_PARAMETERS: 15 °C
ENDPOINT_NAME: log K carb (carbamate stability constant)

What value of measured log K carb (carbamate stability constant) is listed for NCc1ccccc1 [BZA, benzylamine, reference compound] ? 2.20

What value of measured log K carb (carbamate stability constant) is listed for NCc1ccncc1 ? 2.35

What value of measured log K carb (carbamate stability constant) is listed for NCCO [MEA, monoethanolamine, reference compound] ? 1.85

What value of measured log K carb (carbamate stability constant) is listed for NCc1cccnc1 ? 2.34

* * *

- PROTOCOL_SUMMARY: pKa at 25 °C
- Type: physicochemical
- TEST_PARAMETERS: water; Table 7, (aminomethyl)pyridines; read-out: pKa of conjugate acid at 25° C. in water
ENDPOINT_NAME: pKa

What value of measured pKa is listed for NCc1cccnc1 ? 8.8

What value of measured pKa is listed for NCc1ccccn1 ? 8.7

What value of measured pKa is listed for NCc1ccncc1 ? 8.4

* * *

- PROTOCOL_SUMMARY: pKa at 25 °C
- Format: physicochemical
- TEST_PARAMETERS: 25 °C; read-out: pKa
ENDPOINT_NAME: pKa

What value of measured pKa is listed for NCc1ccncc1 [4-AMPy, 4-(aminomethyl)pyridine] ? 8.6

What value of measured pKa is listed for NCc1ccccn1 [2-AMPy, 2-(aminomethyl)pyridine] ? 8.6

What value of measured pKa is listed for NCc1cccnc1 [3-AMPy, 3-(aminomethyl)pyridine] ? 8.6

* * *

- PROTOCOL_SUMMARY: Carbamate stability constants with enthalpies and entropies, 15.0-45.0 °C
- Type: physicochemical
- TEST_PARAMETERS: 15.0-45.0 °C
ENDPOINT_NAME: ΔH° of log K carb (kJ · mol^−1)

What value of measured ΔH° of log K carb is listed for NCc1ccccc1 [BZA, benzylamine, reference compound] ? −36

What value of measured ΔH° of log K carb is listed for NCc1ccncc1 ? −30.05

(a) NCc1cccnc1
(b) NCCO [MEA, monoethanolamine, reference compound]
Parameter check: reported ΔH° of log K carb is higher for which label, a or b ? Give the chosen item's label as your response. b
(b: −18 kJ · mol^−1, a: −36.83 kJ · mol^−1)

* * *

- PROTOCOL_SUMMARY: Protonation constants with enthalpies and entropies, 15.0-45.0 °C
- Type: physicochemical
- TEST_PARAMETERS: 45 °C
ENDPOINT_NAME: log K prot

What value of measured log K prot is listed for NCc1ccccn1 ? 8.19

What value of measured log K prot is listed for NCc1ccccc1 [BZA, benzylamine, reference compound] ? 8.61

What value of measured log K prot is listed for NCc1cccnc1 ? 8.26

What value of measured log K prot is listed for NCc1ccncc1 ? 7.86

* * *

- PROTOCOL_SUMMARY: Protonation constants with enthalpies and entropies, 15.0-45.0 °C
- Type: physicochemical
- TEST_PARAMETERS: 15 °C
ENDPOINT_NAME: log K prot

What value of measured log K prot is listed for NCc1ccccn1 [2-AMPy, 2-(aminomethyl)pyridine] ? 8.98

What value of measured log K prot is listed for NCc1cccnc1 [3-AMPy, 3-(aminomethyl)pyridine] ? 9.11

What value of measured log K prot is listed for NCc1ccncc1 [4-AMPy, 4-(aminomethyl)pyridine] ? 8.77

What value of measured log K prot is listed for NCc1ccccc1 [BZA, benzylamine, reference compound] ? 9.77

* * *

- PROTOCOL_SUMMARY: Carbamate stability constants with enthalpies and entropies, 15.0-45.0 °C
- Assay type: physicochemical
- TEST_PARAMETERS: 15.0-45.0 °C
ENDPOINT_NAME: ΔS° of log K carb (J · mol^−1 · K^−1)

Worked set:
What value of measured ΔS° of log K carb is listed for NCc1ccccc1 [BZA, benzylamine, reference compound] ? −82

What value of measured ΔS° of log K carb is listed for NCc1ccncc1 ? −58.97

(a) NCc1cccnc1
(b) NCCO [MEA, monoethanolamine, reference compound]
Look at a and b . Which one has the lower recorded ΔS° of log K carb number? Give the chosen item's label as your response. b

* * *

- PROTOCOL_SUMMARY: Protonation constants with enthalpies and entropies, 15.0-45.0 °C
- Format: physicochemical
- TEST_PARAMETERS: 25 °C
ENDPOINT_NAME: log K prot

What value of measured log K prot is listed for NCc1cccnc1 ? 8.83

What value of measured log K prot is listed for NCc1ccccc1 [BZA, benzylamine, reference compound] ? 9.43

What value of measured log K prot is listed for NCc1ccncc1 ? 8.43

What value of measured log K prot is listed for NCc1ccccn1 ? 8.68

* * *

- PROTOCOL_SUMMARY: Protonation constants with enthalpies and entropies, 15.0-45.0 °C
- Format: physicochemical
- TEST_PARAMETERS: 15.0-45.0 °C
ENDPOINT_NAME: ΔH° of log K prot (kJ · mol^−1)

What value of measured ΔH° of log K prot is listed for NCc1cccnc1 [3-AMPy, 3-(aminomethyl)pyridine] ? −50.6

What value of measured ΔH° of log K prot is listed for NCc1ccncc1 [4-AMPy, 4-(aminomethyl)pyridine] ? −53.9

What value of measured ΔH° of log K prot is listed for NCc1ccccn1 [2-AMPy, 2-(aminomethyl)pyridine] ? −46.6

What value of measured ΔH° of log K prot is listed for NCc1ccccc1 [BZA, benzylamine, reference compound] ? −59.5

* * *

- PROTOCOL_SUMMARY: Carbamate stability constants with enthalpies and entropies, 15.0-45.0 °C
- Assay type: physicochemical
- TEST_PARAMETERS: 25 °C
ENDPOINT_NAME: log K carb (carbamate stability constant)

What value of measured log K carb (carbamate stability constant) is listed for NCc1ccncc1 [4-AMPy, 4-(aminomethyl)pyridine] ? 2.22

What value of measured log K carb (carbamate stability constant) is listed for NCCO [MEA, monoethanolamine, reference compound] ? 1.76

What value of measured log K carb (carbamate stability constant) is listed for NCc1cccnc1 [3-AMPy, 3-(aminomethyl)pyridine] ? 2.11

What value of measured log K carb (carbamate stability constant) is listed for NCc1ccccc1 [BZA, benzylamine, reference compound] ? 2.01

These data points were gathered from patent US12343676B2.
